Reported protein stability index values are given for each entry in this list.
experiment: protein stability index of a GFP-peptide fusion (GPS, HEK-293T) (PSI 1-6); higher = more stable; conditions: treatment: DMSO; c terminus: a fixed tail appended;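 also: 24-mer peptide tiles fused after GFP, lentivirally expressed, FACS-sorted into six equal bins by GFP/DsRed ratio, decoded by Illumina sequencing, PSI is the read-weighted mean bin number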
Please give the numeric answer without any surrounding text.

[
  {
    "biopolymer-sequence": "VPPRRATISSWRNDRMSTRHDGYA [RBMY1A1]",
    "protein stability index": 3.37
  },
  {
    "biopolymer-sequence": "RWKRRRSYSREHEGRLRYPSRREP [CLK3]",
    "protein stability index": 3.86
  },
  {
    "biopolymer-sequence": "SGSDSGGSSSSSSSSINSPDRASG [FAM104A]",
    "protein stability index": 5.36
  },
  {
    "biopolymer-sequence": "ALLKFHTLDSYEDKQKLKRTEIIS [YJU2B]",
    "protein stability index": 2.53
  },
  {
    "biopolymer-sequence": "WIAHSEKLPRKVLQHVSEPQAHQE [SPACA9]",
    "protein stability index": 4.11
  },
  {
    "biopolymer-sequence": "AAGVAAAFGAPIGGTLFSLEEGSS [CLCN6]",
    "protein stability index": 3.94
  },
  {
    "biopolymer-sequence": "TSKDLVTLGASSLREERGHPLHPR [C6orf223]",
    "protein stability index": 4.26
  },
  {
    "biopolymer-sequence": "FLLIVTLCVILYKKVHKGTVPKND [GLT8D2]",
    "protein stability index": 2.59
  },
  {
    "biopolymer-sequence": "NVYHSYDLPWFRTLSWYFLLCVNY [CDS2]",
    "protein stability index": 2.93
  },
  {
    "biopolymer-sequence": "VMTLPSDLRKHRRKLLSPVSREEN [PPFIA4]",
    "protein stability index": 3.61
  }
]

Please look at this sequence and report its protein stability index: ELDELLKEISRKRRSIRYGREVEL [PTPRD]
2.5

Output protein stability index of GILEHVDSASPVEDTSNDESSILG [M1AP]
5.56

Quick one: give measured protein stability index for RWSRVGGQRFYSRVLSPLHRGPSG
2.9

----------
Listing of entries alongside the reported protein stability index.
test: protein stability index of a GFP-peptide fusion (GPS, HEK-293T) (PSI 1-6); higher = more stable; conditions: treatment: DMSO; c terminus: a fixed tail appended
Would you mind answering with just the numeric figure?

[
  {
    "biopolymer-sequence": "VHEHDGHLYLGSFRSPFLCRLSLQ [APMAP]",
    "protein stability index": 2.73
  }
]

Please give measured protein stability index of the following entry: HPDSWRAYPFYWAWLPQAKVPFSQ [PI4K2A]
2.5

Return value of protein stability index for input NDLLEILEIDDLDAIVPAVKKLKV [CEP70] , no commentary.
2.4

----------
assay: protein stability index of a GFP-peptide fusion (GPS, HEK-293T) (PSI 1-6); higher = more stable; conditions: treatment: DMSO; c terminus: a fixed tail appended
Classes (protein stability index): bottom bin = under 3, middle bin = from 3 up to 4, top bin = 4 and over

Please review the entries below; each comes with its answer.
[
  {
    "biopolymer-sequence": "KQLNCVEISALNGNRINVPMVRKR [DLC1]",
    "class-label": "top bin"
  },
  {
    "biopolymer-sequence": "SFAILRIIRLVRVFRIFKLSRHSK [KCNA4]",
    "class-label": "bottom bin"
  },
  {
    "biopolymer-sequence": "DISLGQKEDGEPSWREAKVSWFGS [PWWP2B]",
    "class-label": "middle bin"
  },
  {
    "biopolymer-sequence": "LRDEHRCASKYGRDWERYTAAVPY [DHCR7]",
    "class-label": "bottom bin"
  },
  {
    "biopolymer-sequence": "IIWFSFELVVRFFACPSKTDFFKN [KCNA1]",
    "class-label": "bottom bin"
  }
]

Could you place EDFIFSHFFGDKALKKRSGKKDKH [PBXIP1] in its proper category? Many thanks.
middle bin

Sort into band: KEYPVVPRSTVRQKVASNHSPFSS [TBX5]
middle bin

# classify by protein stability index band: RSVEEAPVYSVPQLLSAMGSLCSL [SCNN1D]
bottom bin

Category of QRRSMVSPNFGFMGQLLQYESEIL [DUSP5] , please.
bottom bin

Form: Item = QPSDRLMTEKQQEEAEWESINVLL [CEP70] ; Class = ?
top bin

Class for ITVAELREAVPALLGEPLAGPELD [CABP4] ?
middle bin

Note: place this sequence into its band. Item: QELLERGLLQLDHRGLRCSWEGLA [RSAD1]
bottom bin
